# procedure_summary: in vitro
# Assay type: in vitro ADME, human
# experimental_parameters: human liver microsomes, no NADPH, 1 h, compound 0.5 μM
List of Human Liver Microsomal Stability no NADPH, % remain 1 h values.
Report only the number, with the unit % understood.

Recorded Human Liver Microsomal Stability no NADPH, % remain 1 h, per entry:
| compound | value_reported |
| --- | --- |
| CC(=O)[C@H]1CC[C@H]2[C@@H]3CC[C@H]4C[C@](C)(OC(=O)COC(=O)C(C)(C)N)CC[C@]4(C)[C@H]3CC[C@]12C [Compound 218] | 10.0 |
| COCCOCCOCC(=O)OCC(=O)O[C@]1(C)CC[C@@]2(C)[C@@H](CC[C@@H]3[C@@H]2CC[C@]2(C)[C@@H](C(C)=O)CC[C@@H]32)C1 [Compound 205] | 5.7 |
| COCCOCCOCC(=O)OCO[C@]1(C)CC[C@@]2(C)[C@@H](CC[C@@H]3[C@@H]2CC[C@]2(C)[C@@H](C(C)=O)CC[C@@H]32)C1 [Compound 503] | 11.6 |
| CC(=O)[C@H]1CC[C@H]2[C@@H]3CC[C@H]4C[C@](C)(OC(=O)CNCC(C)(C)N)CC[C@]4(C)[C@H]3CC[C@]12C [Compound 138] | 95.3 |
| CC(=O)[C@H]1CC[C@H]2[C@@H]3CC[C@H]4C[C@](C)(OC(=O)COC(=O)CN5CCOCC5)CC[C@]4(C)[C@H]3CC[C@]12C [Compound 200] | 1 |

Return value of Human Liver Microsomal Stability no NADPH, % remain 1 h for input CC(=O)[C@H]1CC[C@H]2[C@@H]3CC[C@H]4C[C@](C)(OC(=O)COC(=O)[C@H](C)N5CCOCC5)CC[C@]4(C)[C@H]3CC[C@]12C [Compound 211] , no commentary.
27

Item CC(=O)[C@H]1CC[C@H]2[C@@H]3CC[C@H]4C[C@](C)(O)CC[C@]4(C)[C@H]3CC[C@]12C [ganaxolone, Ganaxolone] : provide Human Liver Microsomal Stability no NADPH, % remain 1 h
99.0

Identify measured Human Liver Microsomal Stability no NADPH, % remain 1 h corresponding to COC(=O)CNCC(=O)O[C@]1(C)CC[C@@]2(C)[C@@H](CC[C@@H]3[C@@H]2CC[C@]2(C)[C@@H](C(C)=O)CC[C@@H]32)C1 [Compound 110]
1.5

# credit: patent US20250034201A1
